System: HepG2
Assay: Transfection with β-galactosidase reporter plasmid pCMVSPORT-β-gal, β-gal activity (ONPG)
Type: cell-based
Settings: HepG2 cells; DMS lipid (1:1 DOPE), 1.0 μg plasmid DNA, 1.0 ug peptide; β-gal activity OD 405 nm
# if measured Fold Ehancement over Lipid Alone < 2 Fold: condition met  # else: condition not met

substance	tested.target	category.label
(K)16YYCDIRLRDP [Peptide #1]	HepG2	condition met
(K)16YYCQQRSSYPYTFGG [Peptide #6]	HepG2	condition not met
(K)16YYCLQSMEDPYTFGG [Peptide #7]	HepG2	condition not met
(K)16AAWDDSLGI [Peptide #3]	HepG2	condition met
(K)16VELDSFDY [Peptide #4]	HepG2	condition met
(K)16YYCARSDGNYGYYYALDYDY [Peptide #8]	HepG2	condition met
(K)16YYCQQSYSTPWTFGQGTK [Peptide #10]	HepG2	condition not met
